test system: K562 cells; assay: K562 cell growth inhibition; assay type: cell-based, human; settings: Homo sapiens, K562, Tables 8-15; no unit printed there
GI50: recorded values
Hi! Could you send only the number? It should be in µM, unit omitted.

Look over these answered cases.
CC(C)(C)[C@@H]1C=C(C(=O)O)[C@H](c2ccc(Cl)cc2)N1S(=O)(=O)c1c(Cl)cccc1Cl ... 8.26
Cc1ccccc1S(=O)(=O)N1[C@@H](c2ccc(Cl)cc2)C(C(=O)N[C@@H](Cc2ccccc2)C(=O)O)=C[C@H]1C(C)(C)C [drawing 152] ... 20
CC(C)(C)[C@@H]1C=C(C(=O)N[C@@H](Cc2ccccc2)C(N)=O)[C@H](c2ccc(Cl)c(Cl)c2)N1S(=O)(=O)c1c(Cl)cccc1Cl ... 3.63

Switching to the query record.
GI50 in this record for `CC(C)C[C@H](NC(=O)C1=CC[C@@H](c2cccc(Br)c2)N(S(=O)(=O)c2ccc(F)cc2)[C@H]1c1cccc(Cl)c1)C(N)=O` : 1.7

* * *

tested on: MCF10a; test: MCF10a cell growth inhibition; type: cell-based; conditions: Homo sapiens, MCF-10A, Tables 8-15; no unit printed there
RECORDED ENDPOINT: GI50 (µM)
Hi! Could you send only the number? It should be in µM, unit omitted.

CC(C)C[C@H](NC(=O)C1=CC[C@@H](c2cccc(Br)c2)N(S(=O)(=O)c2ccc(Cl)cc2)C1c1cccc(Cl)c1)C(N)=O (stereo partly drawn) ... 14.2

GI50 in this record for Cc1ccccc1S(=O)(=O)N1[C@@H](c2ccc(Cl)c(Cl)c2)C(C(=O)N[C@@H](Cc2ccccc2)C(N)=O)=C[C@H]1C(C)(C)C [P61-B11] : 9.38

* * *

Test system: Jurkat cells
Assay: Jurkat cell growth inhibition
Assay type: cell-based, human
Settings: Tables 8-15; no unit printed there; read-out: Jurkat GI50
Procedure: In Table 4 in cell GI50 values for the growth inhibition of Jurkat cells are reported. The GI50 value is the concentration of a test compound needed to produce 50% growth inhibition in the cell type listed. […] Panc-1 cells (Pancreatic cancer cell line) and Jurkat cells (T-cell leukemia) were treated with 12.5 μM of P5-H6 or 12.5 μM of mP5-H6a for 72 hours. The cell number was counted as described in Example 5. […]
GI50 strictly less than 6 µM = TRUE. Otherwise FALSE.

Example results:
CC(C)C[C@H](NC(=O)C1=CC[C@@H](c2cccc(Cl)c2)N(S(=O)(=O)c2ccc(Br)cc2)C1c1cccc(Br)c1)C(N)=O (some centres unmarked) [P61-C10] ... TRUE
CC(C)(C)[C@@H]1C=C(C(=O)N[C@@H](Cc2ccccc2)C(N)=O)[C@H](c2ccc(Cl)c(Cl)c2)N1S(=O)(=O)c1c(Cl)cccc1Cl [P61-D10] ... TRUE
COC(=O)[C@H](Cc1ccccc1)NC(=O)C1=C[C@@H](C(C)(C)C)N(S(=O)(=O)c2ccccc2C)[C@H]1c1ccc(Cl)cc1 [P61A5] ... FALSE

Given Cc1ccccc1S(=O)(=O)N1[C@@H](c2ccc(Cl)c(Cl)c2)C(C(=O)N[C@@H](Cc2ccccc2)C(N)=O)=C[C@H]1C(C)(C)C [P61-B11] , is recorded GI50 strictly lower than 6 µM?
FALSE

* * *

system: Jurkat cells; assay: Jurkat cell growth inhibition; type: cell-based, human; settings: Homo sapiens, Jurkat, Tables 4, 6, 7; read-out: Jurkat cell GI50
log10(GI50): recorded values
Remember, log10 of GI50, in µM.

CC(C)(C)[C@@H]1C=C(C(=O)N[C@@H](Cc2ccccc2)C(N)=O)[C@H](c2ccc(Br)cc2)N1S(=O)(=O)c1ccccc1Cl ... 0.68

log10(GI50) in this record for `CC(C)C[C@H](NC(=O)C1=CC[C@@H](c2cccc(Br)c2)N(S(=O)(=O)c2ccc(F)cc2)[C@H]1c1cccc(Cl)c1)C(N)=O` : -0.49

log10(GI50) in this record for COC(=O)C(CC(C)C)NC(=O)C1=CCC(c2cccc(Cl)c2)N(S(=O)(=O)c2ccc(Br)cc2)C1c1cccc(Cl)c1 (stereo not drawn) : 0.58

log10(GI50) in this record for Cc1ccccc1S(=O)(=O)N1C(c2cccc(Cl)c2)C(C(=O)N[C@@H](CC(C)C)C(N)=O)=CC[C@H]1c1ccc(Cl)cc1 (stereo partly drawn) : 0.79

log10(GI50) in this record for `CC(C)(C)[C@@H]1C=C(C(=O)N[C@@H](Cc2ccccc2)C(N)=O)[C@H](c2ccc(Cl)c(Cl)c2)N1S(=O)(=O)c1c(Cl)cccc1Cl` : 0.69

log10(GI50) in this record for `Cc1ccccc1S(=O)(=O)N1[C@@H](c2ccc(Cl)cc2)C(C(=O)N[C@@H](Cc2ccccc2)C(=O)O)=C[C@H]1C(C)(C)C` : 1.11
